koff values, listed per item
- SUBJECT OF TEST: T1, human LAP-TGFB1 Fc fusion (human)
- T1 construct: also called human LAP-TGFβ1-Fc; human LAP-TGFβ-Fc isoform 1
- ASSAY NAME: BLI off-rate screen
Your answer is read as s⁻¹, so omit the unit and give the number.

{"BINDER": "VL L94Y (59BIT) (Fab, V domains shown) VH: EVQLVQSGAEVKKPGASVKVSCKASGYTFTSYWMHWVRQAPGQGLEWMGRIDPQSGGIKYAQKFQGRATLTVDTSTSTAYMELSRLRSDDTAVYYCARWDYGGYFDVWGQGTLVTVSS VL: DIQMTQSPSSLSASVGDRVTITCRASQDITNYLNWYQQKPGKAVKLLIYYTSRLHSGVPSRFSGSGSGTDYTLTISSLQPEDFATYFCQQGDTYPWTFGQGTKLEIKR", "READING": 0.0571}
{"BINDER": "VH D96Y (64BIT) (Fab, V domains shown) VH: EVQLVQSGAEVKKPGASVKVSCKASGYTFTSYWMHWVRQAPGQGLEWMGRIDPQSGGIKYAQKFQGRATLTVDTSTSTAYMELSRLRSDDTAVYYCARWYYGGYFDVWGQGTLVTVSS VL: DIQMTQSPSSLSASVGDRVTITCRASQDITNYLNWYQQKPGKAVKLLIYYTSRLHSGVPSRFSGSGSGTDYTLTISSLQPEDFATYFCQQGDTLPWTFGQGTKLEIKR", "READING": 0.0746}

The reported value for VL R53Y (50BIT) (Fab, V domains shown) VH: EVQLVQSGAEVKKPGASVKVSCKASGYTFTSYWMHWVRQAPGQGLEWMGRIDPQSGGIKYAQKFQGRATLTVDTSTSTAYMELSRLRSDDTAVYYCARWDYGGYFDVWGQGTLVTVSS VL: DIQMTQSPSSLSASVGDRVTITCRASQDITNYLNWYQQKPGKAVKLLIYYTSYLHSGVPSRFSGSGSGTDYTLTISSLQPEDFATYFCQQGDTLPWTFGQGTKLEIKR in terms of koff is 0.027
